- run description: Ocular tissue concentrations (aqueous humor, vitreous humor, iris, retina, choroid, cornea) after topical ocular, subcutaneous and intravitreal administration
- Assay type: in vivo, New Zealand White rabbits
- test parameters: New Zealand White, rabbit, iris, subcutaneous, 5 mg/kg/dose, Iris, 2 hr, OS; free acid, subcutaneous 5 mg/kg/dose, Group 3; read-out: Iris Conc. (ng/g) OS
attribute measured: concentration at 2 h (ng/g)
Numeric answer only, unit ng/g assumed.

Summary for this molecule, `COC(=O)N[C@@H](Cc1ccccc1)C(=O)N[C@@H](Cc1ccc(NS(=O)(=O)O)cc1)c1csc(-c2cccs2)n1` : concentration at 2 h is 29.5

====

- run description: Plasma concentrations and pharmacokinetic parameters after topical ocular, subcutaneous and intravitreal administration
- Type: in vivo, New Zealand White rabbits
- test parameters: New Zealand White, rabbit, plasma, topical or ocular, 0.7 mg/kg, plasma; topical ocular 1.2 mg/eye (~0.7 mg/kg/dose), solution; read-out: tmax
Structures can show the parent of a compound that is named as a salt.
attribute measured: Tmax
Your answer should be a number followed by the unit of measure.

Notebook: COC(=O)N[C@@H](Cc1ccccc1)C(=O)N[C@@H](Cc1ccc(NS(=O)(=O)O)cc1)c1csc(-c2cccs2)n1 [Compound 1 sodium salt] , Tmax read as 4 h

====

- run description: Ocular tissue concentrations (aqueous humor, vitreous humor, iris, retina, choroid, cornea) after topical ocular, subcutaneous and intravitreal administration
- Format: in vivo, New Zealand White rabbits
- test parameters: New Zealand White, rabbit, cornea homogenate, subcutaneous, 5 mg/kg/dose, TABLE 16: Cornea homogenate, 0.5 hr, OS; free acid, subcutaneous 5 mg/kg/dose, Group 3; read-out: Cornea Conc. (ng/mL) OS
attribute measured: concentration at 0.5 h (ng/mL)
Value expressed in ng/mL; do not type the unit.

// COC(=O)N[C@@H](Cc1ccccc1)C(=O)N[C@@H](Cc1ccc(NS(=O)(=O)O)cc1)c1csc(-c2cccs2)n1 [Compound 1] : concentration at 0.5 h value = 0.897

====

- run description: Ocular tissue concentrations (aqueous humor, vitreous humor, iris, retina, choroid, cornea) after topical ocular, subcutaneous and intravitreal administration
- Type: in vivo, New Zealand White rabbits
- test parameters: New Zealand White, rabbit, choroid, subcutaneous, 5 mg/kg/dose, Choroid, 2 hr, OD; free acid, subcutaneous 5 mg/kg/dose, Group 3; read-out: Choroid Conc. (ng/g) OD
attribute measured: concentration at 2 h (ng/g)
Quick reminder: number only, in ng/g, skip the unit.

concentration at 2 h for `COC(=O)N[C@@H](Cc1ccccc1)C(=O)N[C@@H](Cc1ccc(NS(=O)(=O)O)cc1)c1csc(-c2cccs2)n1` is 36.5

====

- run description: Ocular tissue concentrations (aqueous humor, vitreous humor, iris, retina, choroid, cornea) after topical ocular, subcutaneous and intravitreal administration
- Assay type: in vivo, New Zealand White rabbits
- test parameters: New Zealand White, rabbit, choroid, subcutaneous, 5 mg/kg/dose, Choroid, 4 hr, OD; free acid, subcutaneous 5 mg/kg/dose, Group 3; read-out: Choroid Conc. (ng/g) OD
attribute measured: concentration at 4 h (ng/g)
Respond with the bare value in ng/g.

Measured concentration at 4 h of `COC(=O)N[C@@H](Cc1ccccc1)C(=O)N[C@@H](Cc1ccc(NS(=O)(=O)O)cc1)c1csc(-c2cccs2)n1` : 53

====

- run description: Plasma concentrations and pharmacokinetic parameters after topical ocular, subcutaneous and intravitreal administration
- Assay type: in vivo, New Zealand White rabbits
- test parameters: New Zealand White, rabbit, plasma, other: intravitreal, 2.5 mg, plasma; intravitreal 2.5 mg/eye (~1.55 mg/kg), solution; read-out: tmax
Structures can show the parent of a compound that is named as a salt.
attribute measured: Tmax (h)
Your answer is read as h, so omit the unit and give the number.

Reported Tmax of COC(=O)N[C@@H](Cc1ccccc1)C(=O)N[C@@H](Cc1ccc(NS(=O)(=O)O)cc1)c1csc(-c2cccs2)n1 [Compound 1 sodium salt] : 3
